Listed here: items and their measured composite z-score.
# measuredOn: Left-right determination factor 2 (Homo sapiens)
# protocol: small molecules binding LEFTY2 protein – biochemical, small-molecule microarray, 635 nm fluorescence scan, primary screen (AID 1110)
# conditionNotes: higher = more signal
A bare number is all that is needed in reply.

Consider the following illustrative entries.
* CC(C)C[C@H]1NC(=O)C([C@@H](C)OCc2ccccc2)NC(=O)[C@@]23C(=O)N[C@@H](Cc4ccccc4)C2[C@H](C)[C@@]2(C)O[C@H]2C3/C=C/C/C=C\CNC1=O (stereo partly drawn) | 0.905
* COc1ccccc1CN1C(=O)c2ccccc2[C@](Cc2ccccc2I)(C(=O)NCC(C)C)[C@@H]1c1ccc(CO)cc1 | -1.25

Turning to the following compound.
Which value of composite z-score has been reported for [N-]=[N+]=Nc1ccccc1C[C@@]1(C(=O)NCc2ccccc2)N=C(c2ccc(OCCCO)cc2)O[C@@H]1c1ccccc1N=[N+]=[N-] in the records?
-0.0656

* * *

# protocol: small molecules captured by biotinylated probe aFGF10 – biochemical, small-molecule microarray, fluorescence 635/667, stem cell growth factor project, primary screen (AID 1071);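 note: score merges 667 nm spot intensity and signal to noise from triplicate slides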
# conditionNotes: higher = more signal
Please mark Y if the recorded composite z-score is equal to or greater than 0.6, and N if it falls below.

* COC(=O)C(CC#Cc1ccc2c(c1)[C@]1(C(=O)N2)[C@H](c2ccc(OCCO)cc2)N2[C@H](c3ccccc3)[C@H](c3ccccc3)OC(=O)[C@H]2[C@@H]1C(=O)N1CCCCCCC1)C(=O)OC | Y

Determine whether measured composite z-score meets or exceeds 0.6 for O=C(N1CCOCC1)[C@@]1(Cc2ccccc2)COC(c2ccc(OCCCO)cc2)=N1
Y

What about this compound? CN(C)CCCNC(=O)[C@@]1(Cc2ccccc2I)c2ccccc2C(=O)N(C2CCCCC2)[C@H]1c1ccc(CO)cc1
N

What about this compound? C[C@]1(C(=O)O)c2ccccc2C(=O)N(Cc2cc(F)cc(C(F)(F)F)c2)[C@H]1c1ccc(CO)cc1
N

* * *

# protocol: COS7 lysate on small-molecule microarray, probe aHis, 635 nm (AID 1123);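 note: z-score combines 667nm fluorescence intensity with signal-to-noise per printed compound spot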
# conditionNotes: COS7 cell lysate, fluorescence, higher = more signal
metric: composite z-score

* CCCCCC1=C2CNC(Cc3ccccc3)(C(=O)OC)C=C2C(C)C1=O (centres undefined) | 2.17
* COC(=O)C(CC#Cc1ccc2c(c1)[C@]1(C(=O)N2)[C@H](C(=O)NC[C@H](O)c2ccccc2)[C@H]2C(=O)O[C@H](c3ccccc3)[C@H](c3ccccc3)N2[C@@H]1c1ccccc1OCCO)C(=O)OC | 2.14
* O=C1C=C(c2ccccc2)C(=O)C2=C1CC([C@H]1Oc3ccccc3S(=O)(=O)N3CCC[C@@H]13)=CC2 | -0.227
* COCCn1c(C(=O)N(C)C)cc2c1C[C@H]1CN(C(=O)c3ccccc3)[C@@](Cc3ccc(OC)cc3)(C(=O)OC)[C@@H]21 | 2.94
* C=CCNC(=O)[C@@H]1[C@H]2C(=O)O[C@H](c3ccccc3)[C@H](c3ccccc3)N2[C@H](c2ccc(OCCO)cc2)[C@@]12C(=O)Nc1ccc(C#CC3(O)CCCCCC3)cc12 | 1.86

Turning to the following molecule.
Which value of composite z-score has been reported for CN(C)CCCNC(=O)[C@@]1(Cc2ccccc2I)c2ccccc2C(=O)N(C2CCCCC2)[C@H]1c1ccc(CO)cc1 in the records?
1.57
